Where do the numbers come from? From paper PMC5165034.

- study-system: influenza virus X-31 hemagglutinin (HA) (Influenza A virus X-31 (H3N2; HA of …, UniProt P03437, strain)
property: binding result

{"columns": ["binder", "observed-value"],
 "data": [
  ["2B5 (VHH) VHH: EVQLVESGGGLVKPGGSLRLSCAASGFTFSDYYMTWIRQTPGKGLEWVSYISDDNNTIYYADSVKGRFTISRDNAKNSLYLQMNSLRAEDTAVYYCARDGYFGELPGFDYWGQGTLVTVSS", "binds"],
  ["3B8 (VHH) VHH: EVQLVESGGGLVKPGGSLRLSCAASGFTFSDYYMSWIRQAPGKGLEWVSYISGSGNTIYYADSVRGRFTISRDNAKNSLYLQMNSLRAEDTALYYCARDRAGMVRGPHYWGQGTLVTVSS", "binds"]
]}
